- measurementDescription: Solubility of the compound in D2O solution at 25 degC by 1H NMR analysis
- Type: physicochemical
endpointName: solubility (µM)
Numbers only; they are read as µM.

Reported solubility for CCOC(=O)c1c(C)n(Cc2ccccc2)c2ccc(OCCCN3CCCCC3)cc12 : what is it?
23

Which measured solubility value corresponds to CCOC(=O)c1c(C)n(Cc2ccccc2)c2ccc(OCCCN)cc12 ?
17

Read the next record carefully.
Look up solubility: CCOC(=O)c1c(C)n(Cc2ccccc2[N+](=O)[O-])c2ccc(OCCCN3CCCCC3)cc12
14

---

- Test system: Staphylococcus aureus
- measurementDescription: Antimicrobial activity against Staphylococcus aureus 1199B by microdilution method
- Format: functional
endpointName: MIC

Suppose we examine the compound CCOC(=O)c1c(C)n(Cc2ccc(C(F)(F)F)cc2)c2ccc(OCCCN3CCCCC3)cc12 ; what MIC value has been reported?
> 100 µg/mL

What does the record list as MIC for CCOC(=O)c1c(C)n(Cc2ccccc2)c2ccc(OCC(CF)N3CCCCC3)cc12 (centres undefined) ?
> 100 µg/mL

If you can, please state the reported MIC value of CCOC(=O)c1c(C)n(Cc2ccccc2)c2ccc(OCCCN3CCOCC3)cc12 .
> 100 µg/mL

New cases:
Recorded MIC of CCOC(=O)c1c(C)n(Cc2ccccc2)c2ccc(OCCCN3CCNCC3)cc12 , please.
100 µg/mL

Param item = CCOC(=O)c1c(C)n(Cc2ccccc2)c2ccc(OCC(O)CN3CCOCC3)cc12 (centres undefined) ; retrieve measured MIC.
> 100 µg/mL

MIC lookup needed for CCOC(=O)c1c(C)n(Cc2ccccc2)c2ccc(OCCN3CCNCC3)cc12 , thanks.
> 100 µg/mL

For the compound CCOC(=O)c1c(C)n(Cc2cccc(F)c2)c2ccc(OCCCN3CCCCC3)cc12 , what MIC is on record?
> 100 µg/mL

Recorded MIC of CCOC(=O)c1c(C)n(Cc2ccccc2C)c2ccc(OCCCN3CCCCC3)cc12 , please.
25 µg/mL

Need MIC of CCOC(=O)c1c(C)n(Cc2ccccc2)c2ccc(OCC(O)CN)cc12 (centres undefined) , thanks.
> 100 µg/mL

Which MIC is reported for this compound? CCOC(=O)c1c(C)n(Cc2ccccc2)c2ccc(OCC(F)CN3CCCCC3)cc12 (centres undefined)
> 100 µg/mL

Need MIC, item CCOC(=O)c1c(C)n(Cc2ccccc2)c2ccc(OCC(N)CO)cc12 (centres undefined)
> 100 µg/mL

What value of MIC has been recorded for this entry: CCOC(=O)c1c(C)n(Cc2ccccc2)c2ccc(OCCCCN)cc12
100 µg/mL

Name the reported MIC value associated with the compound CCOC(=O)c1c(C)n(Cc2ccccc2)c2ccc(OCC(O)CN3CCCCC3)cc12 (centres undefined)
> 100 µg/mL

Fill blank: measured MIC of the compound CCOC(=O)c1c(C)n(Cc2cccc(OC)c2)c2ccc(OCCCN3CCCCC3)cc12 is ____.
> 100 µg/mL

I have this compound here, CCOC(=O)c1c(C)n(Cc2ccccc2)c2ccc(OCCc3ccccc3)cc12 , and I need its recorded MIC.
> 100 µg/mL

I'd like to know its MIC. The compound in question is CCOC(=O)c1c(C)n(Cc2ccccc2)c2ccc(O)cc12
> 100 µg/mL

Consider the compound shown here: CCOC(=O)Cc1c(C)n(Cc2ccccc2)c2ccc(OCCCN3CCCCCC3)cc12 What is its recorded MIC?
100 µg/mL

Consider the compound shown here: CCOC(=O)c1c(C)n(Cc2ccccc2)c2ccc(OCCCN3CCCCC3)cc12 What is its recorded MIC?
> 100 µg/mL

Look up MIC for this compound: CCOC(=O)c1c(C)n(Cc2ccc(OC)cc2)c2ccc(OCCCN3CCCCC3)cc12
> 100 µg/mL
